Exercise: state measured pIC50 for each of the compounds provided.
Target sequence: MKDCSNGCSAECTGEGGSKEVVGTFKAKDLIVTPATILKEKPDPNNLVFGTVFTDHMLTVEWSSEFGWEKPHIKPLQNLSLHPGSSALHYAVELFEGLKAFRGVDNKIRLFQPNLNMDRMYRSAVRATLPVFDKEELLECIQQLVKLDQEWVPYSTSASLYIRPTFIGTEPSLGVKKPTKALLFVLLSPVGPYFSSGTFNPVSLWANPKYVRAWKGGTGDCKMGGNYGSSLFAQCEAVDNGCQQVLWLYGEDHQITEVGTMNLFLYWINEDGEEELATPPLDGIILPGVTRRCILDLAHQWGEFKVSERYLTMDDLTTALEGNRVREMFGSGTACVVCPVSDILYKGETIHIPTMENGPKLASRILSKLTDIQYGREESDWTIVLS
pIC50: −log10 of the molar value.

Some solved cases for reference:
[[record]]
compound = "O=C(N[C@H]1CCC[C@@H](n2c(-c3ccccc3F)nc3cc(-n4nccn4)ncc32)C1)c1ncc(C(F)F)s1 [Example 148]"
measurement_type = "pIC50"
measurement = "< 5.30"

[[record]]
compound = "CC(C)Cc1nc2cnc(-c3nc[nH]n3)cc2n1[C@@H]1CCC[C@H](NC(=O)c2ccc(C(F)(F)F)s2)C1 [Example 342]"
measurement_type = "pIC50"
measurement = "> 6.30"

[[record]]
compound = "CO[C@H]1C[C@H](NC(=O)c2ncc(Cl)s2)C[C@H](n2c(CC(C)C)nc3cnc(-c4ncc(C)o4)cc32)C1 (single isomer, unassigned) [Example 427]"
measurement_type = "pIC50"
measurement = "6.00 to 6.30"

[[record]]
compound = "O=C(N[C@H]1CCC[C@@H](n2c(-c3ccccc3F)nc3cnc(-c4ncccn4)cc32)[C@@H]1O)c1ncc(Cl)s1 [Example 245]"
measurement_type = "pIC50"
measurement = "> 6.30"

[[record]]
compound = "O=C(N[C@H]1CCC[C@@H](n2c(-c3ncccc3F)nc3cnc(-n4ccnn4)cc32)C1)c1ccc(Br)s1 [Example 12]"
measurement_type = "pIC50"
measurement = "> 6.30"


Quick one: give me pIC50 for each item below, same order please.
1. CC(C)Cc1nc2cnc(-c3nc[nH]n3)cc2n1[C@@H]1CCC[C@H](NC(=O)c2ncc(Cl)s2)C1 [Example 86]
2. CC(C)Cc1nc2cnc(-c3ccn(C(F)F)n3)cc2n1[C@@H]1CCC[C@H](NC(=O)c2ncc(Cl)s2)[C@H]1O [Example 230]
3. CNc1cc2c(cn1)nc(-c1ccccc1F)n2[C@@H]1C[C@@H](O)C[C@H](NC(=O)c2ncc(Cl)s2)C1 [Example 274]

RESULT:
["> 6.30", "6.00 to 6.30", "> 6.30"]
